Catalogue of compounds with associated pEC50
# study_system: UniProt Q14416
# assay_explanation: FLIPR Ca2+ mobilization assay, potentiation of mGluR2
# measurement_parameters: CHO dhfr- cells expressing recombinant human mGluR2 and Gα16; potentiation after EC20 glutamate (900 nM); read-out: IC50 (Representative FLIPR EC50 Values)
Kindly note that pEC50 refers to -log10 of the concentration in mol/L and answer with the value alone.

Observe how each entry below is paired with its result.
>>> endpoint_result("COC(=O)NC(C)(C)c1ccc(C)c(-c2ccc3c(n2)n(C)c(=O)n3CC(C)(C)C)c1 [Compound 42-3]")
7.43
>>> endpoint_result("CC(=O)N1CCN(Cc2ccc(C#N)c(-c3ccc4c(n3)n(C)c(=O)n4CC(C)(C)C)c2)CC1 [Compound 21-47]")
7.13
>>> endpoint_result("Cn1c(=O)n(CC(C)(C)C)c2ccc(-c3cc(CN4CCS(=O)(=O)CC4)ccc3C#N)nc21 [Compound 21-11]")
7.47

Quickly give me recorded pEC50 for Cn1c(=O)n(CC(C)(C)C)c2ccc(-c3cccc(CN4CCc5onc(O)c5C4)c3F)nc21 [Compound 61-4]
7.96

---

pEC50 for assorted compounds
# study_system: human mGluR2 (Homo sapiens, UniProt Q14416)
# Sequence (Q14416 19-872): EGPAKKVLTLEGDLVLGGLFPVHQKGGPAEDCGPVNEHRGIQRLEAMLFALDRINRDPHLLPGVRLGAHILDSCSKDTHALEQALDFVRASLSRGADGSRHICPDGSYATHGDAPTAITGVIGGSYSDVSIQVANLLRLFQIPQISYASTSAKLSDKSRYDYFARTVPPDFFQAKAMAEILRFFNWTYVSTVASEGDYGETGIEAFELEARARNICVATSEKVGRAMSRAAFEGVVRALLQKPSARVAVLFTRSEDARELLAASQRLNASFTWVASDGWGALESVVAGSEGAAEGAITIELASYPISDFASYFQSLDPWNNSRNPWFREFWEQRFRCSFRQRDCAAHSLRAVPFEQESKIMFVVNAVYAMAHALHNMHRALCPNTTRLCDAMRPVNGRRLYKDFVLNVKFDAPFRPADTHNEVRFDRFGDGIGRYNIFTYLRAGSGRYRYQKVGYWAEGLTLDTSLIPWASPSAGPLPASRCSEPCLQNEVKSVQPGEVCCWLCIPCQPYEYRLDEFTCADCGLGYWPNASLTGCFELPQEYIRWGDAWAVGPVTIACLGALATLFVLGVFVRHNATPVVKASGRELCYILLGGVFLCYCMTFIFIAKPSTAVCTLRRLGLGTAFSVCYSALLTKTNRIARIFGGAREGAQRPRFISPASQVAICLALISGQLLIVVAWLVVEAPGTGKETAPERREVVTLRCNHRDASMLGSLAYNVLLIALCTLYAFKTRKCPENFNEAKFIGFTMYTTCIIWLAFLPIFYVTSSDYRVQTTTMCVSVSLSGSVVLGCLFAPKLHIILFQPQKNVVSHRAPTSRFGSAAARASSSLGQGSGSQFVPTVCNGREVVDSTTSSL
# assay_explanation: FLIPR Ca2+ mobilization assay, potentiation of mGluR2
# measurement_parameters: CHO dhfr- cells expressing recombinant human mGluR2 and Gα16; potentiation after EC20 glutamate (900 nM); read-out: IC50 (Representative FLIPR EC50 Values)
Scale note: pEC50 = -log10(concentration in M).

Examples with their reported pEC50 follow.
>>> endpoint_result("CC(O)C(=O)N1CCCC(c2cccc(-c3ccc4c(n3)n(C)c(=O)n4CC(C)(C)C)c2)C1 (stereo not drawn)")
7.55
>>> endpoint_result("CC(=O)N1CCN(Cc2ccc(C)c(-c3ccc4c(n3)n(C)c(=O)n4CC(C)(C)C)c2)CC1")
6.65
>>> endpoint_result("Cn1c(=O)n(CC(C)(C)C)c2ccc(-c3cccc(C(C)(C)O)c3F)nc21")
7.60

Give me measured pEC50, please, for this compound: Cn1c(=O)n(CC(C)(C)C)c2ccc(-c3cc(CN4CCN(S(C)(=O)=O)CC4)ccc3C#N)nc21
7.68

Indicate the recorded pEC50 value for this compound: Cc1ccc(CN2CCN(S(C)(=O)=O)CC2)cc1-c1ccc2c(n1)n(C)c(=O)n2CC1CC1(F)F (stereo not drawn)
7.46

For the compound Cc1ccc(CC(C)(C)O)cc1-c1ccc2c(n1)n(C)c(=O)n2CC(C)(C)C , give its measured pEC50 value.
7.37

Give reported pEC50 value for Cn1c(=O)n(CC(C)(C)C)c2ccc(-c3cccc(N4CCN(C(=O)c5ccon5)CC4)c3)nc21
7.35

Supply reported pEC50 belonging to this compound: Cc1ccc(CN2CCN(S(C)(=O)=O)CC2)cc1-c1ccc2c(n1)n(C)c(=O)n2CC(C)(C)C
7.59

Supply recorded pEC50 for Cn1c(=O)n(CC(C)(C)C)c2ccc(-c3cc(Oc4ccnc(C#N)c4)ccc3C#N)nc21 here.
8.10
